src = patent US20220017615A1

- Assayed System: T1, cynomolgus CD47, on CHOK1-cCD47 stable cell line (cynomolgus)
- T1 construct: whole, on cells; check before use; also called CHOK1/cynoCD47; monkey-derived CD47
- Test Method Notes: FACS CHOK1-cCD47; Ab 0 nM (background)
Record yes whenever mean fluorescence intensity is at 80 or higher; record no when lower.

>  <Binder>
25E3B5 (antibody, V domains shown, Murine hybridoma antibody purified on protein G) VH: QVQLQQPGTALVRPGSSVKLSCKASGYTFTSYWMHWVRQRPIKGLEWIGNIDPSDSETHYNQRFKDKVTLTVDKSSNTAYMQLSSLTSEDSAVYYCARWKYHGIGAMDYWGQGTSVTVSS VL: DVQITQSPSYLAASPGETVTISCRTNRNISKFLAWYQEKPGKTNKLLIYSGSTLHSGIPSRFSGSGSGTDFTLTISRLEPEDFAMYYCQQHNEYPWSFGGGTKLEIK

>  <Class Label>
yes

$$$$
>  <Binder>
54G8G6 (antibody, V domains shown, Murine hybridoma antibody purified on protein G) VH: QVQLQQPGADLVKPGASVKMSCKASGYTFTSYWIIWVKQRPGQGLEWIGDINPGRGSPNYNEKFKRKATLTVDTSSSTAYMQLSSLTSEDSAVYYCVRGGLRRFDHWGQGTLVTVSA VL: ENVLTQSPAIMSASPGEKVTMTCRASSSVSSSYLHWYQQKSGASPKLWIYSTSTLASGVPARFSGSGSGTSYSLTISSVEAEDAATYYCQQYSGYPYTFGGGTKLEIK

>  <Class Label>
no

$$$$
>  <Binder>
132D1E5 (antibody, V domains shown, Murine hybridoma antibody purified on protein G) VH: QVQLQQPGAELVRPGSSVKLSCKASGYTFTNNWMHWVKQRPLQGLEWIGNIDPSDSETHYNQKFKDKATLTVDKSSTTAYIQLSSLTSEDSAVYYCARWRGGGRGAMDYWGQGTSVTVSS VL: DVQITQSPSYLAASPGETITINCRTSKNISKFLAWYQEKPGKTNKLLIYSGSTLQSGIPSRFSGSGSGTDFTLTISNLEPEDFAMYYCQQHNEYPWTFGRGTKLEIK

>  <Class Label>
no

$$$$
>  <Binder>
51E2F11 (antibody, V domains shown, Murine hybridoma antibody purified on protein G) VH: EVQLQQSGAELVKPGASVKLSCTASGFNIKDHYIHWMNQRTEQGLEWIGRIDPDDGETRYAPKFRGKATLTADTSSNTAYLQFSSLTSEDTAVYHCTRATTITRDWYFDVWGTGTTVTVSS VL: DIVMTQSQKFMSTSVGDRVSITCKASQNVRTSVAWYQQKPGQSPKALIYLASNRHTGIPDRFTGSGSGTDFTLTIRNVQSEDLADYFCLQHWDYPLTFGAGTKLELK

>  <Class Label>
no

$$$$

hey, is mean fluorescence intensity for this one >= 80? 4D10B11 (antibody, V domains shown, Murine hybridoma antibody purified on protein G) VH: QVQLQQSGPELVKPGASVKISCKASGYSFTSYYIHWVKQRPGQGLEWIGWIYPGSGNTKYNEKFKGKATLTADTSSSTADMQLSSLTSEDSAVYYCARRGDWYFDVWGTGTTVTVSS VL: DIVMSQSPSSLVVSVGEKVTMNCKSSQSLLFSGNQKSSLAWYQQKPGQSPKLLIYWASTRESGVPDRFTGSGSGTDFTLIISTVKAEDLAVYSCQQYYSYPLTFGAGTKLELK
no

Input 95E2D10 (antibody, V domains shown, Murine hybridoma antibody purified on protein G) VH: QIQLQQSGPELVKPGASMKISCKASGYPFTDYYIHWVKQKPGQGLEWIGWIYPGSGNNKYNEKFKGKATLTVDTSPSTVYMQLSSLTSEDTAVYFCARRAGNYFDYWGQGTTLTVSS VL: NIVMTQSPKSMSRSVGERVTLSCRASENVRTYVFWYQQKPGLSPKLLIYGASNRYIGVPDRFTGSGSATDFTLTISSVQAEDLADYHCGQSYSYPLTFGAGTKLELK
no
